meta.source: ChEMBL document CHEMBL3612045

Target: Voltage-dependent N-type calcium channel subunit alpha-1B (Homo sapiens)
Sequence (Q00975 whole entry): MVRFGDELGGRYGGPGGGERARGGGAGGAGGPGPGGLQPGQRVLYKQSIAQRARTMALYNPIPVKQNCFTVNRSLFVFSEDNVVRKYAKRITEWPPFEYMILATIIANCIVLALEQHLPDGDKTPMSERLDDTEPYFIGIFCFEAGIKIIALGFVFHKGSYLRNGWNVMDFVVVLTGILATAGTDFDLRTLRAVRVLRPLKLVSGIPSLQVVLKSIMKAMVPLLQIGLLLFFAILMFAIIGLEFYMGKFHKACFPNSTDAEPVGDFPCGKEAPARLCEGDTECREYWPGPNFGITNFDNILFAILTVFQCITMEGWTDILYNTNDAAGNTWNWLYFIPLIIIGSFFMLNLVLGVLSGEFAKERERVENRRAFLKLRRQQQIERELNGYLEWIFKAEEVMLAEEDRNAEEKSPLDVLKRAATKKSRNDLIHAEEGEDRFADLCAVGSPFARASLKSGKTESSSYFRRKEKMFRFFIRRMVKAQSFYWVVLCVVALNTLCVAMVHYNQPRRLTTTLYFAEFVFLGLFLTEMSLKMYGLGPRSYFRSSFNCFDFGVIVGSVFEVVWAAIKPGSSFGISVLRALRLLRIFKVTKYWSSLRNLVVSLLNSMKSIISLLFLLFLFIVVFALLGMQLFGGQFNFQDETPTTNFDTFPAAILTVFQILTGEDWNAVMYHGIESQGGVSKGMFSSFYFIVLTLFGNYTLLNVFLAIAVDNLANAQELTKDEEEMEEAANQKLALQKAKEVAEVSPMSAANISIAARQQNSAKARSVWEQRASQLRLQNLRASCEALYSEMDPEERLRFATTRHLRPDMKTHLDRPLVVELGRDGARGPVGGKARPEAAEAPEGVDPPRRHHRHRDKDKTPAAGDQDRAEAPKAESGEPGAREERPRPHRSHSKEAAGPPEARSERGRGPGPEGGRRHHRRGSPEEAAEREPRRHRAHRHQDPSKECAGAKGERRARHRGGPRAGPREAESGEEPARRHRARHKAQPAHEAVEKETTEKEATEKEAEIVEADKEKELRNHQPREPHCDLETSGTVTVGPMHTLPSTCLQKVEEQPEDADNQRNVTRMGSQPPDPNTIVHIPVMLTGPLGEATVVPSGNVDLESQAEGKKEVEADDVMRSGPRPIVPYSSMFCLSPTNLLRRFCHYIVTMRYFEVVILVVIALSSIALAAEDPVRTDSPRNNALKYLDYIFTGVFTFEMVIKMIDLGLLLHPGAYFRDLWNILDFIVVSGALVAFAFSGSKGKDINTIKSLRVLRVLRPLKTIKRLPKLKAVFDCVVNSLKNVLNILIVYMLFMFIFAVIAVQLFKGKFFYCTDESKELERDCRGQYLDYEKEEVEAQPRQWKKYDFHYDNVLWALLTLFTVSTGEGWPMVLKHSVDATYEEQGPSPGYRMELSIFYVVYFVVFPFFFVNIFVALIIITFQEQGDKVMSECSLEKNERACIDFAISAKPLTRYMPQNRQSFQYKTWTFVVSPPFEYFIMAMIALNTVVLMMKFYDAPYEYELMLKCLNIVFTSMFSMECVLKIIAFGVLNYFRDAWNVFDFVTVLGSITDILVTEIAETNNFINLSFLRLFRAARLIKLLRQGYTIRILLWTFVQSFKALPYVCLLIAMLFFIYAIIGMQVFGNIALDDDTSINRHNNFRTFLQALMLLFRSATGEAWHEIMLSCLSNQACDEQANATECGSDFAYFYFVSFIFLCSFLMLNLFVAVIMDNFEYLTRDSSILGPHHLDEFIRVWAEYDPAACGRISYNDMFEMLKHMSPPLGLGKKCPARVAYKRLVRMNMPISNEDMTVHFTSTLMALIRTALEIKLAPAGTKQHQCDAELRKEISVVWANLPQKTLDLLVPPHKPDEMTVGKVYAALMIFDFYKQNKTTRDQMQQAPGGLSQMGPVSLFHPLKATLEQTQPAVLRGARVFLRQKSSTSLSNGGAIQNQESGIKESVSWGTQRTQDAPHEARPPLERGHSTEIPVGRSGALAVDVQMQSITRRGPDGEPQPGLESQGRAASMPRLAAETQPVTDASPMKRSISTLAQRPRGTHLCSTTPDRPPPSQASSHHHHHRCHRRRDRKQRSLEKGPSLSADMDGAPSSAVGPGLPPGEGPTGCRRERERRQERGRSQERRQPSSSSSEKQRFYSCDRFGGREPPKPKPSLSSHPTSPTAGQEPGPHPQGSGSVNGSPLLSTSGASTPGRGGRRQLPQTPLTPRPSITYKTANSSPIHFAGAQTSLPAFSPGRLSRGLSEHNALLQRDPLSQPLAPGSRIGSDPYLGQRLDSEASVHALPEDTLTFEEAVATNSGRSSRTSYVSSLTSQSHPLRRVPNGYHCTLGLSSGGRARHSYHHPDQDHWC
Experiment: Inhibition of Cav2.2 channel (unknown origin) assessed as reduction in peak currents by whole cell patch-clamp method
pIC50: −log10 of the molar value.
Let's look at some compounds and their measured pIC50.
measuredAttribute: pIC50

samplesmiles=COc1cc(CNCc2c[nH]c3ccc(Cl)cc23)cc(OC)c1OC studysystem="Voltage-dependent N-type calcium channel subunit alpha-1B (Homo sapiens)" measuredattribute=pIC50 experimentalvalue=5.02
samplesmiles=COc1ccc(-c2ccc(CNCc3cc(OC)c(OC)c(OC)c3)o2)cc1Cl studysystem="Voltage-dependent N-type calcium channel subunit alpha-1B (Homo sapiens)" measuredattribute=pIC50 experimentalvalue=5.23
samplesmiles=COc1cc(CNCc2ccc(Oc3ccc(C#N)cc3)cc2)cc(OC)c1OC studysystem="Voltage-dependent N-type calcium channel subunit alpha-1B (Homo sapiens)" measuredattribute=pIC50 experimentalvalue=5.03
samplesmiles=COc1cc(CNCc2ccc(-c3cccc(C(F)(F)F)c3)o2)cc(OC)c1OC studysystem="Voltage-dependent N-type calcium channel subunit alpha-1B (Homo sapiens)" measuredattribute=pIC50 experimentalvalue=5.17
samplesmiles=COc1cc(CNCc2ccc(-c3ccc(Cl)cc3)o2)cc(OC)c1OC studysystem="Voltage-dependent N-type calcium channel subunit alpha-1B (Homo sapiens)" measuredattribute=pIC50 experimentalvalue=5.37
